test system: HCoV-229E; experiment: Cytopathic inhibition assay (crystal violet)
metricName: selectivity ratio

Completed entries (count: 3):
1) Cc1n[nH]c2c1C(c1cccs1)c1c(N)ncnc1O2 (stereo not shown) [Compound 2]
2.4
2) Cc1n[nH]c2c1C(c1cccs1)c1c(ncn3[nH]c(=S)nc13)O2 (stereo not shown) [Compound 11]
1.7
3) Cc1n[nH]c2c1C(c1cccs1)C(C#N)=C(/N=C/[C@@H](O)[C@H](O)[C@H](O)CO)O2 (stereo partly shown) [Compound 15]
1.18

Read the next record carefully.
Inquiry: Return selectivity ratio measured with HCoV-229E given this compound: Cc1n[nH]c2c1C(c1cccs1)C(C#N)=C(N1C(=O)CSC1c1nncn1C)O2 (stereo not shown) [Compound 5]
Reply text: 1.86

----------
target: SARS-CoV2 protease enzyme (3CL protease, M^pro) (Severe acute respiratory syndrome coronavirus 2, UniProt P0DTD1)
metricName: IC50
Please answer using the number first and the unit second.

1) COP(=O)(OC)C1(c2csnn2)NC2=C(C1=O)C(c1cccs1)c1c(C)n[nH]c1O2 (centres unmarked)
772 µM
2) CCC[C@@]1(CCc2ccccc2)CC(O)=C([C@H](CC)c2cccc(NS(=O)(=O)c3ccc(C(F)(F)F)cn3)c2)C(=O)O1 [tipranavir, reference compound]
22.1 µM
3) Cc1n[nH]c2c1C(c1cccs1)C(C#N)=C(N1C(=O)C(Cl)C1c1nncn1C)O2 (centres unmarked)
105 µM
4) Cc1n[nH]c2c1C(c1cccs1)C(C#N)=C(/N=C/[C@H](O)[C@@H](O)[C@@H](O)[C@H](O)CO)O2 (some centres unmarked)
66.1 µM

--- query ---
Inquiry: What IC50 value was documented for this compound, Cc1n[nH]c2c1C(c1cccs1)C(C#N)=C(/N=C/[C@H](O)[C@@H](O)[C@H](O)CO)O2 (some centres unmarked) ?
Reply text: 180 µM

----------
system: HCoV-229E; assay: Cytopathic inhibition assay (crystal violet); settings: Vero-E6 cells infected with HCoV-229E
Measured selectivity ratio by item
Give a plain numeric answer without units written out.

1) Cc1n[nH]c2c1C(c1cccs1)C(C#N)=C(/N=C/[C@H](O)[C@@H](O)[C@@H](O)[C@H](O)CO)O2 (stereo partly drawn)
12.6
2) Cc1n[nH]c2c1C(c1cccs1)C(C#N)=C(/N=C/[C@H](O)[C@@H](O)[C@H](O)CO)O2 (stereo partly drawn)
6.5

Inquiry: What does the record list as selectivity ratio for Cc1n[nH]c2c1C(c1cccs1)C(C#N)=C(N1C(=O)C(Cl)C1c1nncn1C)O2 (stereo not drawn) ?
Reply text: 7.6

----------
test system: HCoV-229E; assay: Cytopathic inhibition assay (crystal violet)
Entries and their selectivity ratio
Lab note: write the figure by itself, no unit.

// worked examples, selectivity ratio included
1. COP(=O)(OC)C1(c2csnn2)NC2=C(C1=O)C(c1cccs1)c1c(C)n[nH]c1O2 (centres unmarked)
4.3
2. CCO/C=N/C1=C(C#N)C(c2cccs2)c2c(C)n[nH]c2O1 (centres unmarked)
2.3
3. Cc1n[nH]c2c1C(c1cccs1)C(C#N)=C(/N=C/c1nncn1C)O2 (centres unmarked)
0.9
4. Cc1n[nH]c2c1C(c1cccs1)c1c(ncn3nc(-c4nc[nH]n4)nc13)O2 (centres unmarked)
0.46
5. Cc1n[nH]c2c1C(c1cccs1)c1c(ncn(N)c1=N)O2 (centres unmarked)
1.3
6. Cc1n[nH]c2c1C(c1cccs1)c1c(ncn3ncnc13)O2 (centres unmarked)
3.5
7. Cc1n[nH]c2c1C(c1cccs1)C(C#N)=C(/N=C/[C@@H](O)[C@@H](O)[C@H](O)[C@H](O)CO)O2 (some centres unmarked)
1.7

Inquiry: Using the record for Cc1n[nH]c2c1C(c1cccs1)C1=C(NC(c3csnn3)c3c(C(F)(F)F)nn(C)c3OC1=N)O2 (centres unmarked) , report its selectivity ratio.
Reply text: 0.6
